# target of assay: CYP2C8 (Homo sapiens)
# Sequence (P10632 whole entry): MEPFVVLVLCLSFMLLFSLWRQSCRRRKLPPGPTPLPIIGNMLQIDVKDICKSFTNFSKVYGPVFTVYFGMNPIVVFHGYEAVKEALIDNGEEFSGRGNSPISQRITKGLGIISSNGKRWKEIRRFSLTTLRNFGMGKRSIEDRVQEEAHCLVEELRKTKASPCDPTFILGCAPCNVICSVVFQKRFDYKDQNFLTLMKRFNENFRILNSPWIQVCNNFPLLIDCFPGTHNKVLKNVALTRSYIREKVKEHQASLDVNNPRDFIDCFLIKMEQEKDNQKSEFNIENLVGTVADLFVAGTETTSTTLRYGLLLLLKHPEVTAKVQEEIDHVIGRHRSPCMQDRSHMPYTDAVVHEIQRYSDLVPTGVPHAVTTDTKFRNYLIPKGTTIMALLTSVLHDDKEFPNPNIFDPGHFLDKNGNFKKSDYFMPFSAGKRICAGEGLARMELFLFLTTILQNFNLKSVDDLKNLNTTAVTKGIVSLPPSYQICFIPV
# protocol details: Inhibition of CYP2C8 in human liver microsomes assessed as remaining activity at 10 uM preincubated for 5 mins followed by addition of NADPH regenerating system and measured after 15 mins by LC-MS/MS analysis relative to control
# Type: ADME
# experimental setup: read-out: Activity
endpoint: activity at 0.25 h, 10 µM

> print(dat)
                                 smiles.str  result.value
1  CN(c1ncnc2[nH]ccc12)[C@H]1CN(C(=O)CC#N)CC12CC2           81%
2  CCS(=O)(=O)N1C[C@H](N(C)c2ncnc3[nH]ccc23)C2(CC2)C1        > 100%
3  CN(c1ncnc2[nH]ccc12)[C@H]1CN(S(=O)(=O)c2cccc(C#N)c2)CC12CC2         66.2%
